Value source: PubChem BioAssay (NCI)

Tested on: MDA-MB-435 melanoma
Test: NCI-60 one-dose screen, 48 h
Conditions: 10 µM unless noted
Compounds without any hit were thinned out: in the full panel of roughly 83,000, 20% have a hit. Active and inactive are the calls of the source. How the source made its calls: active means growth percent below 10; inactive means the rest.
Pick one and only one: true = active, false = inactive

O=C(CSc1nc2sc3c(c2c(=O)n1-c1ccccc1)CCCCC3)N/N=C/c1ccc(F)cc1: false
C=CCn1c(SCC(=O)Nc2ccc(C(=O)/C=C/c3cc4cc(OC)ccc4nc3Cl)cc2)nnc1-c1ccc(Br)cc1: false
CCCCC[C@@H]1Cc2cc(O)c(C(=O)O)c3c2[C@H](C[C@]2(OC[C@@H](CC(=O)[C@@](C)(CC)C(=O)OC)[C@@H]2C)O3)O1: false
COc1cc2oc(-c3cccc(NC(=O)c4cccc(Br)c4)c3)cc(=O)c2c(OC)c1OC: false

Ask | In this assay, the call recorded for `O=C1c2c(c3c4ccccc4[nH]c3c3ccc4ccccc4c23)C(=O)N1CCN1CCCCC1` was what?
Reply | false

Ask | Try the molecule `O=C(O)CNC1=C(Cl)C(=O)c2ccccc2C1=O`
Reply | false

Ask | Can you handle `Oc1c(Cl)cc(Cl)c2ccc(Cn3cc(-c4ccc(C(F)(F)F)cc4)nn3)nc12` next?
Reply | false

Ask | Please give the result for `O=C1c2cccnc2C(=O)c2c1c(C(=O)NCCCN1CCCCC1)c1ccccn21` too.
Reply | true

Ask | Also check `O=C(COc1ccc(-c2nc3ccccc3[nH]2)cc1)N=Nc1c(O)[nH]c2ccc(Cl)cc12`
Reply | false

Ask | What do you have for CC(C)NC1CCC(Nc2ccnc3cc(Cl)ccc23)CC1 (stereo not given) ?
Reply | false

Ask | Repeat for the following molecule: `O=C(Nc1nc2ccc(F)cc2s1)c1cccnc1Nc1ccc(Cl)cc1`
Reply | false

Ask | `CCOC(=O)Cn1c(O)c(N=Nc2ccc(S(N)(=O)=O)cc2)c2cc(Br)ccc21` , same question.
Reply | false
